Source: ChEMBL document CHEMBL4414672

target: NAD-dependent protein deacetylase sirtuin-2 (Homo sapiens, UniProt Q8IXJ6); experiment: Inhibition of SIRT2 (unknown origin) assessed as increase in alpha-tubulin acetylation after 2 hrs by alpha-tubulin acetyl-K40 assay
Sequence (Q8IXJ6 whole entry): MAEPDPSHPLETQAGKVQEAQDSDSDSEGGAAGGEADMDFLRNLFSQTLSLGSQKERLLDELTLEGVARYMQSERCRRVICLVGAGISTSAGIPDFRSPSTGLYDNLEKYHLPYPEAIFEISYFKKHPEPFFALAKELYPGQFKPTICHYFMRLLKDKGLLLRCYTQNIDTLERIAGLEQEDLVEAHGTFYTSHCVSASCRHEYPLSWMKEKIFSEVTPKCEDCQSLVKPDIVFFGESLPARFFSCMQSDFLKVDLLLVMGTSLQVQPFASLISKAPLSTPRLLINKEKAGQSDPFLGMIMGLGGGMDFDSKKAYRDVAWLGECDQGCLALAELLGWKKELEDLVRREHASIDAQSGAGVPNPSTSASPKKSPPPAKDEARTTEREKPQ
Measured attribute: IC50 (µM)
Express it in µM; write the number only.

## Task I have this molecule here, O=C1CSC2=Nc3c(sc4ccc(Cl)cc34)C(c3ccc4ccccc4c3)N12 (stereo unspecified) , and I need its recorded IC50.
## Result 76.1

====

system: HCT-116; test: Growth inhibition of human HCT116 cells at 10^-5 M incubated for 48 hrs by sulforhodamine B assay; format: functional; settings: HCT-116, 48 h, read-out: GI
Measured attribute: inhibition of growth at 10 µM (%)
Express it in %; write the number only.

Here is how some molecules turned out for inhibition of growth at 10 µM.
Molecule	inhibition of growth at 10 µM [%]
O=C1Nc2c(sc3ccc(Cl)cc23)C(c2ccc3ccccc3c2)N1 (stereo not given)	-4.42
O=C1/C(=C\c2cccc(Br)c2)Sc2ccc(Cl)cc21	0.42
O=C1Nc2c(sc3ccc(Cl)cc23)C(c2cccc(Br)c2)N1 (stereo not given)	4.12

## Task I have this molecule here, S=C1Nc2c(sc3ccc(Cl)cc23)C(c2ccc3ccccc3c2)N1 (stereo not given) , and I need its recorded inhibition of growth at 10 µM.
## Result 9.94

## Task I have this molecule here, O=[N+]([O-])c1cccc(C2c3sc4ccc(Cl)cc4c3N=C3NN=C(c4cccc(F)c4)N32)c1 (stereo not given) , and I need its recorded inhibition of growth at 10 µM.
## Result 2.49

====

system: NCI-H460; assay: Growth inhibition of human NCI-H460 cells at 10^-5 M incubated for 48 hrs by sulforhodamine B assay; type: functional; conditions: NCI-H460, 48 h, read-out: GI
Measured inhibition of growth at 10 µM, listed per entry.
Express it in %; write the number only.

Molecule	Subject of test	Number
O=[N+]([O-])c1cccc(C2c3sc4ccc(Cl)cc4c3N=C3NN=NN32)c1 (stereo not given)	NCI-H460	6.19
NC(=O)CSC1=Nc2c(sc3ccc(Cl)cc23)C(c2cccc([N+](=O)[O-])c2)N1 (stereo not given)	NCI-H460	19.3
O=C1CSC2=Nc3c(sc4ccc(Cl)cc34)C(c3ccc4ccccc4c3)N12 (stereo not given)	NCI-H460	-1.49
N=C1Nc2c(sc3ccc(Cl)cc23)C(c2ccccc2O)N1 (stereo not given)	NCI-H460	0.95
O=C1/C(=C\c2cccc(Br)c2)Sc2ccc(Cl)cc21	NCI-H460	-7.98

API: the following record is the query input.
## Task I have this molecule here, N=C1Nc2c(sc3ccc(Cl)cc23)C(c2cccc(Br)c2)N1 (stereo not given) , and I need its recorded inhibition of growth at 10 µM.
## Result 1.37

====

test system: LOX IMVI; assay: Growth inhibition of human LOXIMVI cells at 10^-5 M incubated for 48 hrs by sulforhodamine B assay; assay type: functional; details: read-out: GI
Measured inhibition of growth at 10 µM, listed per entry.
Express it in %; write the number only.

Molecule	inhibition of growth at 10 µM / %
N=C1Nc2c(sc3ccc(Cl)cc23)C(c2ccccc2O)N1 (stereo unspecified)	-0.7
O=[N+]([O-])c1cccc(C2c3sc4ccc(Cl)cc4c3N=C3NN=NN32)c1 (stereo unspecified)	-0.19
O=[N+]([O-])c1cccc(C2NC(N3CCOCC3)=Nc3c2sc2ccc(Cl)cc32)c1 (stereo unspecified)	3.74
O=C1/C(=C\c2cccc(Br)c2)Sc2ccc(Cl)cc21	2.63
O=[N+]([O-])c1cccc(C2c3sc4ccc(Cl)cc4c3N=C3NN=CN32)c1 (stereo unspecified)	6.72

## Task I have this molecule here, NC(=O)CSC1=Nc2c(sc3ccc(Cl)cc23)C(c2cccc([N+](=O)[O-])c2)N1 (stereo unspecified) , and I need its recorded inhibition of growth at 10 µM.
## Result 3.56

## Task I have this molecule here, CCOC(=O)CSC1=Nc2c(sc3ccc(Cl)cc23)C(c2cccc([N+](=O)[O-])c2)N1 (stereo unspecified) , and I need its recorded inhibition of growth at 10 µM.
## Result 0.14

## Task I have this molecule here, O=C1/C(=C\c2ccc3ccccc3c2)Sc2ccc(Cl)cc21 , and I need its recorded inhibition of growth at 10 µM.
## Result 1.77

## Task I have this molecule here, N=C1Nc2c(sc3ccc(Cl)cc23)C(c2ccc3ccccc3c2)N1 (stereo unspecified) , and I need its recorded inhibition of growth at 10 µM.
## Result 6.47
